# Test system: LNCaP
# Assay Info: Cytotoxicity against human LNCAP cells after 72 hrs by MTT assay
# Format: functional, cell-based
pIC50 values, listed per item
Note on pIC50: it is the negative log10 of concentration, concentration in mol/L.

Some compounds with recorded pIC50:
COc1cc(/C=C(\C(=O)/C=C/C2=C(C)CCCC2(C)C)C(=O)/C=C/c2cc(OC)c(O)c(OC)c2)cc(OC)c1O: 5.06
CC(=O)/C=C/C1=C(C)CCCC1(C)C [BETA-IONONE]: 3.82

Query string: Tell us which pIC50 value is on record for COc1ccc(/C=C/C(O)=C/C(=O)/C=C/C2=C(C)CCCC2(C)C)cc1O
Result string: 4.59

Query string: State its pIC50: COc1cc(/C=C/C(O)=C/C(=O)/C=C/C2=C(C)CCCC2(C)C)cc(OC)c1O
Result string: 5.21

Query string: Report pIC50 for CCOc1ccc(/C=C(\C(=O)/C=C/C2=C(C)CCCC2(C)C)C(=O)/C=C/c2ccc(OCC)c(OCC)c2)cc1OCC
Result string: 4.83

Query string: Quote pIC50 reported for CCn1c2ccccc2c2cc(/C=C(\C(=O)/C=C/C3=C(C)CCCC3(C)C)C(=O)/C=C/c3ccc(O)c(OC)c3)ccc21 please.
Result string: 5.64

Query string: Quickly give me recorded pIC50 for COc1ccc(/C=C/C(O)=C/C(=O)/C=C/C2=C(C)CCCC2(C)C)cn1
Result string: 4.60

All values here come from ChEMBL document CHEMBL1153534.
